System: Streptococcus pneumoniae 1175
Assay type: cell-based
Settings: Streptococcus pneumoniae 1175; microtiter broth dilution
Measured MIC S. pneumo. 1175 accompanies every entry in the list below.
measurement name: MIC S. pneumo. 1175

INSERT INTO assay_data (molecule, observed) VALUES
  ('CCC1OC(=O)C(C)C(=O)C(C)C(OC2OC(C)CC(N(C)C)C2O)C(C)(OC)CC(C)C(=O)C(C)C2N(C3CN(S(=O)(=O)c4cccc5ccccc45)C3)C(=O)OC12C (stereo not drawn) [Example 3.02]', '<0.06 mg/L'),
  ('CC[C@H]1OC(=O)[C@H](C)C(=O)[C@H](C)[C@@H](O[C@@H]2O[C@H](C)C[C@H](N(C)C)[C@H]2O)[C@](C)(OC)C[C@@H](C)C(=O)[C@H](C)[C@H]2N(CC3(C)CN(Cc4c[nH]c5ncccc45)C3)C(=O)O[C@]12C [6.03]', '0.12 mg/L'),
  ('CCC1OC(=O)C(C)C(=O)C(C)C(OC2OC(C)CC(N(C)C)C2O)C(C)(OC)CC(C)C(=O)C(C)C2N(CC3CN(C(=O)c4cc5ccccc5cn4)C3)C(=O)OC12C.O=CO (stereo not drawn) [4.39]', '<0.06 mg/L');

###

Tested on: Streptococcus pneumoniae 1175
Format: cell-based
Settings: S. pneumoniae 1175 (mefA); microtiter broth dilution
measurement name: MIC S. pneumo. 1175 (µg/mL)

INSERT INTO results (molecule, units_label, value_prefix, observed) VALUES
  ('CC[C@H]1OC(=O)[C@H](C)C(=O)[C@H](C)[C@@H](O[C@@H]2O[C@H](C)C[C@H](N(C)C)[C@H]2O)[C@](C)(OC)C[C@@H](C)C(=O)[C@H](C)[C@H]2N(CC3(O)CN(C(=O)c4cccc5ncccc45)C3)C(=O)O[C@]12C', 'µg/mL', '=', 0.25),
  ('CCC1OC(=O)C(C)C(=O)C(C)C(OC2OC(C)CC(N(C)C)C2O)C(C)(OC)CC(C)C(=O)C(C)C2N(CC3CCN(C(=O)c4cccc5ncsc45)C3)C(=O)OC12C (centres unmarked)', 'µg/mL', '<', 0.06),
  ('CCC1OC(=O)C(C)C(=O)C(C)C(OC2OC(C)CC(N(C)C)C2O)C(C)(OC)CC(C)C(=O)C(C)C2N(CC3C4CN(C(=O)OC(C)(C)C)CC43)C(=O)OC12C (centres unmarked)', 'µg/mL', '=', 25),
  ('CC[C@H]1OC(=O)[C@H](C)C(=O)[C@H](C)[C@@H](O[C@@H]2O[C@H](C)C[C@H](N(C)C)[C@H]2O)[C@](C)(OC)C[C@@H](C)C(=O)[C@H](C)[C@H]2N(CC3(C)CN(C(=O)c4cccc5cccnc45)C3)C(=O)O[C@]12C.O=CO', 'µg/mL', '=', 0.12),
  ('CCC1OC(=O)C(C)C(=O)C(C)C(OC2OC(C)CC(N(C)C)C2O)C(C)(OC)CC(C)C(=O)C(C)C2N(CC3CCCN3C(=O)c3ccc4ccccc4n3)C(=O)OC12C (centres unmarked)', 'µg/mL', '=', 2);

###

System: Streptococcus pneumoniae 1175
Type: cell-based
Settings: Streptococcus pneumoniae 1175; microtiter broth dilution
measurement name: MIC S. pneumo. 1175 (µg/mL)

INSERT INTO assay_data (compound, observed) VALUES
  ('CCC1OC(=O)C(C)C(=O)C(C)C(OC2OC(C)CC(N(C)C)C2O)C(C)(OC)CC(C)C(=O)C(C)C2N(CC3CN(Cc4c[nH]c5ccccc45)C3)C(=O)OC12C (stereo not drawn)', 2),
  ('CCC1OC(=O)C(C)C(=O)C(C)C(OC2OC(C)CC(N(C)C)C2O)C(C)(OC)CC(C)C(=O)C(C)C2N(C3CN(Cc4ccnc(-c5nc(C)no5)c4)C3)C(=O)OC12C (stereo not drawn)', 0.25),
  ('CCC1OC(=O)C(C)C(=O)C(C)C(OC2OC(C)CC(N(C)C)C2O)C(C)(OC)CC(C)C(=O)C(C)C2N(C3CN(S(=O)(=O)c4ccc(-c5n[nH]c(=O)[nH]c5=O)cc4)C3)C(=O)OC12C (stereo not drawn)', 2);

###

Tested on: Streptococcus pneumoniae 1175
Type: cell-based
Conditions: Streptococcus pneumoniae 1175; microtiter broth dilution
measurement name: MIC S. pneumo. 1175 (µg/mL)

INSERT INTO assay_data (molecule, value_prefix, observed) VALUES
  ('CC[C@H]1OC(=O)[C@H](C)C(=O)[C@H](C)[C@@H](O[C@@H]2O[C@H](C)C[C@H](N(C)C)[C@H]2O)[C@](C)(OC)C[C@@H](C)C(=O)[C@H](C)[C@H]2N(C3CN(C(C)c4ccnc5ccccc45)C3)C(=O)O[C@]12C (some centres unmarked) [Example 1.62]', '<', 0.06),
  ('CCC1OC(=O)C(C)C(=O)C(C)C(OC2OC(C)CC(N(C)C)C2O)C(C)(OC)CC(C)C(=O)C(C)C2N(C3CN(Cc4ccncc4)C3)C(=O)OC12C (centres unmarked)', '=', 0.5),
  ('CCC1OC(=O)C(C)C(=O)C(C)C(OC2OC(C)CC(N(C)C)C2O)C(C)(OC)CC(C)C(=O)C(C)C2N(C3CN(S(=O)(=O)c4c[nH]c(=O)[nH]c4=O)C3)C(=O)OC12C (centres unmarked)', '=', 32),
  ('CCC1OC(=O)C(C)C(=O)C(C)C(OC2OC(C)CC(N(C)C)C2O)C(C)(OC)CC(C)C(=O)C(C)C2N(C3CN(C(=O)c4cccc(-n5nc(C)cc5C)c4)C3)C(=O)OC12C (centres unmarked)', '=', 0.25),
  ('CCC1OC(=O)C(C)C(=O)C(C)C(OC2OC(C)CC(N(C)C)C2O)C(C)(OC)CC(C)C(=O)C(C)C2N(CC3CN(Cc4cnc5ccccc5c4)C3)C(=O)OC12C (centres unmarked)', '<', 0.06);

###

Measured MIC H. influenzae 1218 accompanies every entry in the list below.
Test system: Haemophilus influenzae 1218
Assay: MIC, microtiter broth dilution (NCCLS M100-S14), H. influenzae 1218 (susceptible)
Type: cell-based
Settings: Haemophilus influenzae 1218
measurement name: MIC H. influenzae 1218 (µg/mL)

INSERT INTO results (compound, measurement_name, observed) VALUES
  ('CCC1OC(=O)C(C)C(=O)C(C)C(OC2OC(C)CC(N(C)C)C2O)C(C)(OC)CC(C)C(=O)C(C)C2N(C3CN(S(=O)(=O)c4ccc(F)cc4)C3)C(=O)OC12C (stereo not drawn)', 'MIC H. influenzae 1218', 0.25),
  ('CCC1OC(=O)C(C)C(=O)C(C)C(OC2OC(C)CC(N(C)C)C2O)C(C)(OC)CC(C)C(=O)C(C)C2N(C3CN(Cc4ccc5nc(C)sc5n4)C3)C(=O)OC12C (stereo not drawn)', 'MIC H. influenzae 1218', 0.5),
  ('CCC1OC(=O)C(C)C(=O)C(C)C(OC2OC(C)CC(N(C)C)C2O)C(C)(OC)CC(C)C(=O)C(C)C2N(C3CN(C(C)c4ccncc4)C3)C(=O)OC12C (stereo not drawn) [Example 1.21, 1R-(pyridin-4-yl)ethyl]', 'MIC H. influenzae 1218', 2);

###

System: Haemophilus influenzae 1218
Assay: MIC, microtiter broth dilution (NCCLS M100-S14), H. influenzae 1218 (susceptible)
Type: cell-based
Conditions: Haemophilus influenzae 1218
Source text: The assay described herein includes a panel of bacterial strains assembled to include a variety of target pathogenic species, including representatives of macrolide resistance mechanisms that have been characterized. In many cases, both the macrolide-susceptible parent strain and the macrolide-resistant strain derived from it are available to provide a more accurate assessment of the compound's ability to circumvent the resistance mechanism. […]
measurement name: MIC H. influenzae 1218 (mg/L)

INSERT INTO results (compound, measurement_name, units_label, observed) VALUES
  ('CC[C@H]1OC(=O)[C@H](C)C(=O)[C@H](C)[C@@H](O[C@@H]2O[C@H](C)C[C@H](N(C)C)[C@H]2O)[C@](C)(OC)C[C@@H](C)C(=O)[C@H](C)[C@H]2N(CC3(C)CN(Cc4c[nH]c5ncccc45)C3)C(=O)O[C@]12C', 'MIC H. influenzae 1218', 'mg/L', 0.5),
  ('CCC1OC(=O)C(C)C(=O)C(C)C(OC2OC(C)CC(N(C)C)C2O)C(C)(OC)CC(C)C(=O)C(C)C2N(C3CN(Cc4cccc(-c5cnco5)c4)C3)C(=O)OC12C (stereo not drawn)', 'MIC H. influenzae 1218', 'mg/L', 0.25),
  ('CCC1OC(=O)C(C)C(=O)C(C)C(OC2OC(C)CC(N(C)C)C2O)C(C)(OC)CC(C)C(=O)C(C)C2N(C3CN(C(=O)Nc4cc(-c5cncc(C)c5)n[nH]4)C3)C(=O)OC12C (stereo not drawn)', 'MIC H. influenzae 1218', 'mg/L', 8);
